Source: patent US6426355B1

- Tested on: VZV strain Ellen
- procedureSummary: VZV Antiviral (ELISA) assay
- Type: cell-based
- setupConditions: VZV strain Ellen in HFF cells
quantityKind: IC50 (ug/ml) VZV

1) COC(=O)c1cc(NC(=S)Nc2ccc(NC(=O)c3ccco3)cc2)cc(C(=O)OC)c1 [Example 469]; >10 µg/mL

IC50 (ug/ml) VZV lookup needed for CN1CCC(N(C)c2ccc(NC(=S)Nc3ccc(NC(=O)c4csnn4)cc3)cc2Cl)C1 (stereo not shown) [Example 341] , thanks.
>10 µg/mL

So what does the record say about IC50 (ug/ml) VZV for Nc1ccc(CCNC(=S)Nc2ccc(NC(=O)c3ccco3)cc2)cc1 [Example 603] ?
>10 µg/mL

Would you kindly share the measured IC50 (ug/ml) VZV for C[C@H](NC(=S)Nc1ccc(NC(=O)c2csnn2)cc1)c1cc(C(F)(F)F)cc(C(F)(F)F)c1 [Example 825] ?
>7.5 µg/mL

###

- Test system: VZV strain Ellen
- procedureSummary: VZV Antiviral (ELISA) assay
- Type: cell-based
- setupConditions: VZV strain Ellen in HFF cells
quantityKind: IC50 (ug/ml) VZV

1) O=C(Nc1ccc(NC(=S)Nc2cccc(C(F)(F)F)c2)cc1)c1ccco1; >10 µg/mL
2) CN(C)c1ccc(Cl)cc1NC(=S)Nc1ccc(NC(=O)c2csnn2)cc1; >10 µg/mL
3) Cn1cnc(C(=O)Nc2ccc(NC(=S)NCc3cc(C(F)(F)F)cc(C(F)(F)F)c3)cc2)c1; >7.5 µg/mL
4) CC(NC(=S)Nc1ccc(NC(=O)c2csnn2)cc1)c1ccc(Br)cc1 (centres unmarked); 0.1 µg/mL
5) COc1cc(C)c(Cl)cc1NC(=S)Nc1ccc(NC(=O)c2ccccn2)cc1; >10 µg/mL
6) CN(C)c1cc(CNC(=S)Nc2ccc(NC(=O)c3csnn3)cc2)cc(C(F)(F)F)c1; >10 µg/mL
7) CN1CCC(N(C)c2ccc(NC(=S)Nc3ccc(NC(=O)c4ccccn4)cc3)cc2Cl)CC1; 7 µg/mL

We now examine a further molecule.
Reported IC50 (ug/ml) VZV, molecule CC(O)c1cccc(NC(=S)Nc2ccc(NC(=O)c3ccco3)cc2)c1 (centres unmarked) : ____
>10 µg/mL

###

Listing: IC50 (ug/ml) HSV of selected compounds
- Tested on: HSV-1
- procedureSummary: HSV Antiviral (ELISA) assay
- Format: cell-based
- setupConditions: HSV-1 in Vero cells
Answer with a number only, understood to be in µg/mL.

1. COc1cc(C)c(Cl)cc1NC(=S)Nc1ccc(NC(=O)c2ccco2)cc1; 0.6
2. COc1cc(OC)c(NC(=S)Nc2ccc(NC(=O)c3nccc4ccccc34)cc2)cc1Cl; 4
3. COc1cc(OC)c(NC(=S)Nc2ccc(NC(=O)c3ccno3)cc2)cc1Cl; 0.6
4. O=C(Nc1ccc(NC(=S)NCCc2ccc(Cl)cc2)cc1)c1csnn1; 10

Consider the record given below.
Consider the compound `COc1cc(OC)c(NC(=S)Nc2ccc(NC(=O)c3cc4ccccc4o3)cc2)cc1Cl` and give its measured IC50 (ug/ml) HSV.
4

###

- System: VZV strain Ellen
- procedureSummary: VZV Antiviral (ELISA) assay
- Assay type: cell-based
- setupConditions: VZV strain Ellen in HFF cells
Listing of entries alongside the reported IC50 (ug/ml) VZV.

1) O=C(Nc1ccc(NC(=S)NCc2ccc(N3CCCCC3)c(C(F)(F)F)c2)cc1)c1csnn1; >10 µg/mL
2) CCCC(NC(=S)Nc1ccc(NC(=O)c2csnn2)cc1)c1cc(C(F)(F)F)cc(C(F)(F)F)c1 (centres unmarked); >7.5 µg/mL
3) CCOC(=O)Nc1ccc(NC(=S)Nc2ccc(NC(=O)c3ccco3)cc2)cc1Cl; >10 µg/mL
4) COc1cc(OC)c(NC(=S)Nc2ccc(NC(=O)c3ccnc4ccccc34)cc2)cc1Cl; >10 µg/mL
5) COc1cc(OC)c(NC(=S)Nc2ccc(NC(=O)c3cc4ccccc4s3)cc2)cc1Cl; >10 µg/mL

What value of IC50 (ug/ml) VZV has been reported for the following molecule? `O=C(Nc1ccc(NC(=S)NCc2ccc3c(c2)OCO3)cc1)c1csnn1`
>10 µg/mL

Need IC50 (ug/ml) VZV of CC(NC(=S)Nc1ccc(NC(=O)c2cscn2)cc1)c1ccc(Br)cc1 (centres unmarked) , thanks.
0.17 µg/mL

For the molecule `O=C(Nc1ccc(NC(=S)NCCc2ccc(F)cc2)cc1)c1csnn1` , what IC50 (ug/ml) VZV is on record?
4 µg/mL
